System: Trypanosoma brucei
test_summary: Trypanosoma brucei 72 hour study
Format: functional, organism-based
Design: scale not given: in the data most compounds retested in dose-response had high values
experimental_context: 30.3 µM; […]
Hit rate of the full screen: of about 66,000 compounds, about 960 (1.5%) showed an effect of 50% or more. For the sample, strong results were picked, then their nearest neighbours and some compounds at random.
measured_quantity: Percent Effect (%)
State the answer as a number, implicitly in %.

Solved cases below.
CN1CCOC(CNCc2ccc(OCc3ccccn3)cc2)C1 (stereo not given) : 56.06
CN(C)CCCN(Cc1cnn(C)c1)Cc1ccco1.O=C(O)CC(O)(CC(=O)O)C(=O)O : -23.52

Note to self: Percent Effect of Cc1nc(COCC2CN(C(=O)N(C)C)Cc3nccn3C2)cs1.O=C(O)C(F)(F)F (stereo not given) with Trypanosoma brucei was -49.05

Note to self: Percent Effect of `Cn1cncc1CN1CCC2(CC1)COCCN(S(C)(=O)=O)C2.O=C(O)C(F)(F)F` with Trypanosoma brucei was -5.891

Note to self: Percent Effect of Cc1ccc(N2CCC3(CN(Cc4cccs4)CCC3(F)F)C2)nn1.O=C(O)C(F)(F)F (stereo not given) with Trypanosoma brucei was -34.83

Note to self: Percent Effect of Cc1nc(CNCC2CN(C)CCO2)cs1 (stereo not given) with Trypanosoma brucei was 3.844

----------
System: Trypanosoma brucei
test_summary: Trypanosoma brucei 72 hour study
Format: functional, organism-based
Set-up: scale not given: in the data most compounds retested in dose-response had high values
experimental_context: 10 mM as filed; unlikely as a test dose
The campaign covered roughly 66,000 compounds. About 960 (1.5%) showed an effect of 50% or more. Many of the other results were omitted from the sample, so strong results are more common in it than they were.
# Percent Effect per entry
State the answer as a number, implicitly in %.

CCn1cc(CN2CCCN(C(=O)CCn3cc(C)cn3)CC2)cn1 : -22.46
COc1c(C)cc(CNCc2ccnc(N3CCOCC3)c2)cc1C.Cl : -23.82
CC1CN(C)CCN1C(=O)c1cnn(-c2cccc(Cl)c2)c1 (stereo unspecified) : -40.4
CN1CCOC(CNCc2coc(-c3cccc(Cl)c3)n2)C1 (stereo unspecified) : -110.4
Cc1cnn(CC2CCCN2Cc2nc(N)c3ccccc3n2)c1 (stereo unspecified) : -16.65
CCOc1ccc(C#N)cc1NCC(=O)OC : -28.98
c1ccc(Oc2ccc(CNCC3CNc4ccnn4C3)cn2)cc1 (stereo unspecified) : -30.66
CCOCC(O)CN1CCN(C(=O)c2ccc(N(C)C)nn2)CC1 (stereo unspecified) : -123.6

Percent Effect measured on CC(C)c1nc(CN2CCCCC2Cn2cncn2)cs1 (stereo unspecified) = -40.32

Percent Effect measured on `CC(C)c1cc(NC(=O)c2ccncc2)[nH]n1` = -12.06

Percent Effect measured on `Cc1ccc(CC(=O)Nc2cc(C(C)C)n[nH]2)cn1` = 101.9

Percent Effect measured on `CC(C)(C)c1cc(NC(=O)CN2CCc3cncnc3C2)on1` = -38.22

Percent Effect measured on CN1CCOC(CNC(=O)Cc2coc(-c3ccccc3)n2)C1 (stereo unspecified) = -18.77

----------
Tested on: Trypanosoma brucei
test_summary: Trypanosoma brucei 72 hour study
Assay type: functional, organism-based
Parameters: scale not given: in the data most compounds retested in dose-response had high values
experimental_context: 30 µM; 30.03 µM
Among all 66,000 compounds or so, about 960 (1.5%) showed an effect of 50% or more. Many of the other results were omitted from the sample, so strong results are more common in it than they were.
measured_quantity: Percent Effect (%)
State the answer as a number, implicitly in %.

Percent Effect measured on CC(O)c1cccc(Nc2nc(NCCO)c3ccccc3n2)c1 (stereo not given) = 5.503

----------
System: Trypanosoma brucei
test_summary: Trypanosoma brucei 72 hour study
Assay type: functional, organism-based
Design: scale not given: in the data most compounds retested in dose-response had high values
experimental_context: 30.3 µM; […]
Hit rate of the full screen: of about 66,000 compounds, about 960 (1.5%) showed an effect of 50% or more. This is one part of a sample in which strong results are shown more often than they occur.
Label scheme for Percent Effect: lower than -50% is -1, -50% and above is 1.

Ask | Record O=C(CN1CCC(c2cc(=O)n3c(n2)CCCCC3)C1)N1CCCCC1.O=C(O)CC(O)(CC(=O)O)C(=O)O (centres undefined) ; criterion: Percent Effect no lower than -50%. Met?
Reply | -1

----------
System: Trypanosoma brucei
test_summary: Trypanosoma brucei 72 hour study
Format: functional, organism-based
Design: scale not given: in the data most compounds retested in dose-response had high values
experimental_context: 30 µM; 30.03 µM
Among all 66,000 compounds or so, about 960 (1.5%) showed an effect of 50% or more. The entries come from a sample that favours strong results as a whole.
measured_quantity: Percent Effect

C[C@H](NC(=O)N1CCN(c2ccc(Cl)cc2)CC1)C(=O)N1CCSCC1 : -37.38%
CC(C)C(NC(=O)N1CCN(c2ccc(Cl)cc2)CC1)C(=O)NC1CC1 (stereo not given) : 53.99%
CC(NC(=O)N1CCN(c2ccc(Cl)cc2)CC1)C(=O)N1CCSCC1 (stereo not given) : 25.8%

Percent Effect measured on CC(C)NC(=O)C(C)NC(=O)N1CCN(c2ccc(Cl)cc2)CC1 (stereo not given) = 51.3%

Percent Effect measured on `CN(C(=O)NC1CC1)C1CCN(c2ccc(Cl)cc2)CC1` = -50.01%

----------
Tested on: Trypanosoma brucei
test_summary: Trypanosoma brucei 72 hour study
Type: functional, organism-based
Parameters: scale not given: in the data most compounds retested in dose-response had high values
experimental_context: 30 µM; 30.03 µM
Screen size: about 66,000 compounds; about 960 (1.5%) showed an effect of 50% or more. For the sample, strong results were picked, then their nearest neighbours and some compounds at random.
measured_quantity: Percent Effect

Solved cases below.
Cc1cc(C(=O)NCCN2CCCCC2C)nn1C(C)(C)C (stereo unspecified) : -37.93%
CN(C)c1ccc(C(=O)N2Cc3cnc(C(C)(C)C)nc3C2)cc1 : -40.98%
CC(C)(C)c1ncc2c(n1)CN(C(=O)c1ccncc1)C2 : -0.7468%
Cc1cnc(CN(Cc2ccc(Cl)s2)C2CCN(C)C2)o1 (stereo unspecified) : -5.686%
CC(C)COCCC(=O)NCc1cn2cc(Br)ccc2n1 : -7.155%
CC(C)(C)c1ncc2c(n1)CN(C(=O)c1ccc(-c3nc[nH]n3)cc1)C2 : 54.09%

Percent Effect measured on `Cc1c(C)n(Cc2ccccn2)c2nc3c(c(N)c12)CCCC3` = 14.96%

Percent Effect measured on `Cn1ncc2c(N3CC(N4CCCCC4)C3)nc(C3CCCC3)nc21` = -31.56%

Percent Effect measured on `COCc1ncc(CN2CCC(Oc3ccccc3OC)CC2)cn1` = -7.671%

Percent Effect measured on Cc1nc(N2CCCC(N3CCCC3)C2)c2cnn(C)c2n1 (stereo unspecified) = 50.19%

Percent Effect measured on Cn1ncc2c(N3CCN4CCCCC4C3)nc(C3CCCC3)nc21 (stereo unspecified) = -37.34%

----------
Test system: Trypanosoma brucei
test_summary: Trypanosoma brucei 72 hour study
Format: functional, organism-based
Parameters: scale not given: in the data most compounds retested in dose-response had high values
experimental_context: 30 µM; 30.03 µM
Screen size: about 66,000 compounds; about 960 (1.5%) showed an effect of 50% or more. The full list was thinned out, with strong results kept by preference.
measured_quantity: Percent Effect (%)
State the answer as a number, implicitly in %.

Solved cases below.
Cc1ccc(CNCc2c[nH]nc2C(C)(C)C)c(OC2CCOC2)c1 (stereo unspecified) : -38.61
Cc1ccc(CNCc2cccc3cccnc23)c(OC2CCOC2)c1 (stereo unspecified) : 98.1
Cc1ccc(CNCc2cccc3cn[nH]c23)c(OC2CCOC2)c1 (stereo unspecified) : -32.61

Percent Effect measured on `COc1cccc(-c2cccc(N3CCC(N[C@@H]4CCOC4)CC3)c2)c1` = 9.147

Percent Effect measured on `Clc1cccc(-c2cccc(N3CCC(NC4CCOCC4)CC3)c2)c1` = 100.7

Percent Effect measured on `Cc1ccc(-c2cccc(N3CCC(NC4CCOCC4)CC3)c2)cc1` = 8.614

----------
System: Trypanosoma brucei
test_summary: Trypanosoma brucei 72 hour study
Type: functional, organism-based
Design: scale not given: in the data most compounds retested in dose-response had high values
experimental_context: 30.3 µM; […]
Screen size: about 66,000 compounds; about 960 (1.5%) showed an effect of 50% or more. This is one part of a sample in which strong results are shown more often than they occur.
Criterion met if Percent Effect is below -10%. Criterion not met if not; exact matches included in Criterion not met.

Below are worked cases with known answers.
CC(C)OCCCN(Cc1ccncc1)Cc1cccc(F)c1F.Cl : Criterion met
Cc1cc(-c2cnc(N3CCOCC3)nc2-c2cccnc2C)on1 : Criterion met
CC(C)c1nc(CNC2CCN(S(C)(=O)=O)CC2)cs1 : Criterion not met

Ask | Percent Effect under -10%? Item: `CN(Cc1ccncn1)C(=O)C1(Oc2ccc(Cl)cc2)CCNCC1`
Reply | Criterion met

Ask | Percent Effect under -10%? Item: `Cn1cccc1C(=O)N1CCC2(CC1)CN(c1ccsc1)C(=O)CO2`
Reply | Criterion met

Ask | Percent Effect under -10%? Item: `C/C(Cl)=C/CNC(=O)[C@H]1CC[C@]2(CC1)CN(C)C(=O)c1ccccc1O2`
Reply | Criterion met

Ask | Percent Effect under -10%? Item: CCc1ocnc1C(=O)N1CCOC(c2nc(C)n[nH]2)C1 (stereo unspecified)
Reply | Criterion met

Ask | Percent Effect under -10%? Item: `Cc1ccc(N2CC[C@H]3O[C@@H](C(=O)N4CCCO4)CC[C@H]32)nn1.O=C(O)C(F)(F)F`
Reply | Criterion met

Ask | Percent Effect under -10%? Item: `CN(Cc1ccoc1)C(=O)C1(Oc2ccc(Cl)cc2)CCNCC1`
Reply | Criterion not met

Ask | Percent Effect under -10%? Item: `Cn1ccc(CN2CCCC23CCN(Cc2cccc(F)c2)CC3)n1.O=C(O)C(F)(F)F.O=C(O)C(F)(F)F`
Reply | Criterion met

Ask | Percent Effect under -10%? Item: COC(=O)c1ccc(N2CCN(C(=O)c3cc(C)no3)C(C)C2)cc1 (stereo unspecified)
Reply | Criterion not met

Ask | Percent Effect under -10%? Item: COC(=O)c1ccc(N2CCN(C(=O)c3ccco3)C(C)C2)cc1 (stereo unspecified)
Reply | Criterion not met

Ask | Percent Effect under -10%? Item: `Cc1cc(-c2cnc(N3CCC(O)CC3)nc2-c2cccnc2C)on1`
Reply | Criterion met

Ask | Percent Effect under -10%? Item: `COc1c(CNCCNC(=O)c2ccccc2)c(C)nn1C.Cl`
Reply | Criterion met

Ask | Percent Effect under -10%? Item: CN(C)CCn1c2c(ccc1=O)CC(NC(=O)NC1CCCC1)CC2.O=C(O)C(F)(F)F (stereo unspecified)
Reply | Criterion met
